meta.source: paper PMC1277809

Target: T1, LexA (DinR) wild type (Bacillus subtilis, UniProt P31080 1-205)
T1 sequence: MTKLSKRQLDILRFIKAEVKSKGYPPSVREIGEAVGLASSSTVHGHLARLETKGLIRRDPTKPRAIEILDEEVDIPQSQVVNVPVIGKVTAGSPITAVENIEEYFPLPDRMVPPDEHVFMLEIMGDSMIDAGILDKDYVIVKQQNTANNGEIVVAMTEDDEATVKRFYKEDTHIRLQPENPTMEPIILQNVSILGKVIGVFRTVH
Experiment: competition EMSA
MEASURED PARAMETER: Ki (nM)

>>> df
                                     binder  measured_parameter  data_value
0  recA op A6T (dsDNA) DNA 1: GGGGGGCGAATTTGCGTTCGCCCCCC DNA 2: GGGGGGCGAACGCAAATTCGCCCCCC                  Ki        11.5
